The reported measurements were obtained from ChEMBL document CHEMBL2150929.

# Tested on: Klebsiella pneumoniae
# methodDescription: Antimicrobial activity against Klebsiella pneumoniae ATCC 13383 after 24 hrs by broth micro-dilution method
# Assay type: functional
# testConditions: ATCC 13383, 24 h
# key: entry, value: MIC
observedProperty: MIC

>>> assayresult("CCCCCCCCCCCCCCCC(=O)NCCN(C(=O)CCc1ccccc1)[C@@H](CCCCN)C(=O)NCCN(C(=O)CCc1ccccc1)[C@@H](CCCCN)C(=O)NCCN(C(=O)CCc1ccccc1)[C@@H](CCCCN)C(N)=O")
"> 50 µg/mL"
>>> assayresult("CCCCCCCCCCCCCCCC(=O)NCCN(C(=O)CCC(C)C)[C@@H](CCCCN)C(=O)NCCN(C(=O)CCC(C)C)[C@@H](CCCCN)C(N)=O")
"> 50 µg/mL"
>>> assayresult("CCCCCCCCCCCCCCCC(=O)NCCN(C(C)=O)[C@@H](C)C(=O)NCCN(C(C)=O)[C@@H](C)C(=O)NCCN(C(=O)CCCN)[C@@H](Cc1ccccc1)C(=O)NCCN(C(=O)CCCN)[C@@H](Cc1ccccc1)C(=O)NCCN(C(=O)CCCN)[C@@H](Cc1ccccc1)C(N)=O")
"8 µg/mL"
